The measurements presented in this section are drawn from patent US11840686B2.

Reported % inhibition values for a set of substances
- Tested on: human PKK mRNA
- experiment_description: Antisense inhibition of human PKK mRNA in HepaRG cells, 1,000 nM, MOE/deoxy/cEt oligonucleotides (Example 3)
- Format: cell-based
- study_conditions: HepaRG cells, electroporation with 1,000 nM antisense oligonucleotide, approx. 24 hours, PKK mRNA by RT-PCR (RTS3454), relative to untreated control cells; Table 25 experiment
Strand notation (5' to 3'): a small letter for the sugar, then the base; units joined by * are phosphorothioate-linked, units joined directly phosphodiester-linked; [ ] holds rarer units or linkages, { } end groups; capitals alone tell only the bases. e = 2'-O-(2-methoxyethyl) (MOE); k = constrained ethyl (cEt); [5mC] = 5-methylcytosine; d = 2'-deoxy (DNA)
The figure you give is taken to be in %; do not add the unit.

Entry 548196 (e[5mC]*eA*kA*dT*dA*dT*dT*dG*dA*d[5mC]*dT*dT*dT*kG*kG*eG; antisense) [compound 548196] — recorded % inhibition = 6
